Ref: patent US5459270A

target_desc: UniProt:P25103
experiment_summary: biochemical
Type: binding
measurement_conditions: displacement of 125I-substance P; human NK1R in COS or CHO cells; read-out: IC50 @ NKIR
pIC50: −log10 of the molar value. Structures can show the parent of a compound that is named as a salt.
measured_endpoint: pIC50

Cc1cc(C)cc(CO[C@H]2CCN(C)[C@H]2C(c2ccccc2)c2ccccc2)c1 (relative stereo)
7.85
NC(=O)C(=O)N1CCC[C@H](OCc2cc(C(F)(F)F)cc(C(F)(F)F)c2)[C@@H]1c1ccccc1 (relative stereo)
6.82
CC1(OCc2cc(C(F)(F)F)cc(C(F)(F)F)c2)CCCNC1c1ccccc1 (centres unmarked) [Example 48, oxalate salt]
7.35
CN1CCC[C@H](OCc2cc(C(F)(F)F)cc(C(F)(F)F)c2)[C@@H]1c1ccccc1
7.70
NC(CN1CCC[C@H](OCc2cc(C(F)(F)F)cc(C(F)(F)F)c2)[C@@H]1c1ccccc1)=NO (relative stereo)
9.05
Cc1cc(I)cc(CO[C@H]2CCCN[C@H]2c2ccccc2)c1
9.30
CC(C)(C)NC(=O)CN1CCC[C@H](OCc2cc(C(F)(F)F)cc(C(F)(F)F)c2)[C@@H]1c1ccccc1 [Example 56, hydrochloride]
7.60
FC(F)(F)c1cc(CO[C@H]2CCCN[C@H]2c2ccccc2)cc(C(F)(F)F)c1 [Example 5, hydrochloride salt]
9.00
N#CCN1CCC[C@H](OCc2cc(C(F)(F)F)cc(C(F)(F)F)c2)[C@@H]1c1ccccc1 (relative stereo) [Example 40, hydrochloride]
7.82
FC(F)(F)c1cc(CO[C@H]2CCCN[C@H]2c2ccccc2Cl)cc(C(F)(F)F)c1 (relative stereo)
7.40

###

target_desc: human neurokinin-1-receptor (NK1R) (Homo sapiens)
Sequence (P25103 whole entry): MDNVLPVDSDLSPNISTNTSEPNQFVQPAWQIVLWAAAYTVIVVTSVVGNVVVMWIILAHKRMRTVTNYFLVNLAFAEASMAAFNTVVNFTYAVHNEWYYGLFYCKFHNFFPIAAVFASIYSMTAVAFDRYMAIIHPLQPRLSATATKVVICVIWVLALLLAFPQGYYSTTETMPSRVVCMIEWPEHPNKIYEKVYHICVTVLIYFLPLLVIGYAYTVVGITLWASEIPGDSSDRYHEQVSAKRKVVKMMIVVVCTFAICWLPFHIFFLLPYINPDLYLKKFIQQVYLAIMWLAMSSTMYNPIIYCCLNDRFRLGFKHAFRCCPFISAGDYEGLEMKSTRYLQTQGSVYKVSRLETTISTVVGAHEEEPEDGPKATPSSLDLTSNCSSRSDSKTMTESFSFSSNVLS
experiment_summary: biochemical
Type: binding
measurement_conditions: displacement of 125I-substance P; human NK1R in COS or CHO cells; read-out: IC50 @ NKIR
Structures can show the parent of a compound that is named as a salt.
Reported IC50 by item:
measured_endpoint: IC50 (nM)

CC1CC[C@H](OCc2cc(C(F)(F)F)cc(C(F)(F)F)c2)[C@H](c2ccccc2)N1 (stereo partly shown) [Example 20, hydrochloride]
2
FC(F)(F)c1cc(CO[C@H]2CCCN[C@H]2c2cccc(Cl)c2)cc(C(F)(F)F)c1 (relative stereo) [Example 22, hydrochloride salt]
5
CC(C)(C)c1cc(CO[C@H]2CCCN[C@H]2c2ccccc2)cc(C(C)(C)C)c1 (relative stereo) [Example 35, oxalate salt]
100
OCC1CC[C@H](OCc2cc(C(F)(F)F)cc(C(F)(F)F)c2)[C@H](c2ccccc2)N1 (stereo partly shown) [Example 55]
2
